Test system: CCRF-CEM
Assay: Cell cycle arrest in human CCRF-CEM cells assessed as accumulation at G0/G1 phase at IC50 measured after 24 hrs by propidium iodide staining based flow cytometry (reference value: 35.2%)
Type: functional
quantity.measured: Activity (%)
Answers are plain numbers, in %.

Example entries begin here.
May I ask what Activity has been recorded for O=c1c(O)c(-c2cccc(F)c2)[nH]c2ccccc12 ? 34.9

What value of Activity has been recorded for this entry: O=c1c(O)c(-c2ccc(F)cc2)[nH]c2ccccc12 39.6

Requested read-out: Activity. Entry: O=c1c(O)c(-c2ccccc2)[nH]c2cc(F)c(Sc3ccccc3)cc12 1.8

***
Can you share its Activity? I mean this molecule: O=c1c(O)c(-c2ccccc2)[nH]c2cc(F)cc(F)c12 33

###

I'd appreciate it if you could supply Activity values for the items below.
Tested on: CCRF-CEM
Assay: Cell cycle arrest in human CCRF-CEM cells assessed as BrdU incorporation at 5 times IC50 measured after 24 hrs by propidium iodide/immunostaining based flow cytometry (reference value: 60.0%)
Assay type: functional
Answers are plain numbers, in %.

# Activity lookup, item O=c1c(O)c(-c2ccc(F)cc2)[nH]c2ccccc12 25.2

Quick batch: Activity for everything below.
1. O=c1c(O)c(-c2cccc(F)c2)[nH]c2ccccc12
2. O=c1c(O)c(-c2ccccc2)[nH]c2cc(F)cc(F)c12
3. O=c1c(O)c(-c2ccccc2)[nH]c2cc(F)c(Sc3ccccc3)cc12

1. 22.4
2. 79
3. 18.7

###

Tested on: HCT-116
Experiment: Cytotoxicity against human HCT-116 cells incubated for 72 hrs by MTS assay
Assay type: functional, cell-based
Conditions: HCT-116, 72 h
quantity.measured: IC50 (µM)
Answers are plain numbers, in µM.

Reference set, count: 3
Data request, read-out IC50, for O=c1c(O)c(-c2ccc(F)cc2)[nH]c2ccccc12 34

Name the reported IC50 value associated with the compound O=c1c(O)c(-c2ccccc2)[nH]c2cc(F)cc(F)c12 22.5

Can you look up the measured IC50 of O=c1c(O)c(-c2ccccc2F)[nH]c2ccccc12 for me? 35.1

Give IC50 for each of the items listed below.
1. O=c1c(O)c(-c2ccccc2)[nH]c2cc(F)c(N3CCOCC3)cc12
2. O=c1c(O)c(-c2ccccc2)[nH]c2cc(F)c(Sc3ccccc3)cc12
3. O=c1c(O)c(-c2ccccc2)[nH]c2cc(F)c(F)cc12
4. O=c1c(O)c(-c2cccc(F)c2)[nH]c2ccccc12

5.2
1.3
15.1
27.1

###

System: CCRF-CEM
Experiment: Cell cycle arrest in human CCRF-CEM cells assessed as accumulation at G2/M phase at 5 times IC50 measured after 24 hrs by propidium iodide staining based flow cytometry (reference value: 22.6%)
Type: functional
Task for the reader: assign each of the following molecules its reported Activity.

May I ask what Activity has been recorded for O=c1c(O)c(-c2cccc(F)c2)[nH]c2ccccc12 ? 27.5%

List Activity for every entry below, keeping the order given.
1. O=c1c(O)c(-c2ccccc2)[nH]c2cc(F)c(Sc3ccccc3)cc12
2. O=c1c(O)c(-c2ccc(F)cc2)[nH]c2ccccc12

1. 20.2%
2. 40.7%

# Activity lookup, item O=c1c(O)c(-c2ccccc2)[nH]c2cc(F)cc(F)c12 21.8%

###

Test system: CCRF-CEM
Assay: Cell cycle arrest in human CCRF-CEM cells assessed as accumulation at sub-G1 phase at 5 times IC50 measured after 24 hrs by propidium iodide staining based flow cytometry (reference value: 2%)
Assay type: functional
quantity.measured: Activity (%)
Give bare numbers, in %.

For the record O=c1c(O)c(-c2ccc(F)cc2)[nH]c2ccccc12 , what value of Activity is listed for CCRF-CEM? 8.4

Give recorded Activity with CCRF-CEM for the following molecule: O=c1c(O)c(-c2cccc(F)c2)[nH]c2ccccc12 15.9

// map O=c1c(O)c(-c2ccccc2)[nH]c2cc(F)c(Sc3ccccc3)cc12 to recorded Activity (system: CCRF-CEM) 29.7

Switching to the query record.
# query: Activity | item O=c1c(O)c(-c2ccccc2)[nH]c2cc(F)cc(F)c12 | system: CCRF-CEM 1.4

###

Tested on: CCRF-CEM
Assay: Cell cycle arrest in human CCRF-CEM cells assessed as BrdU incorporation at IC50 measured after 24 hrs by propidium iodide/immunostaining based flow cytometry (reference value: 60.0%)
Assay type: functional
Field: Activity. Provide a value for each of the compounds that follow.
Give bare numbers, in %.

Data request, read-out Activity, for O=c1c(O)c(-c2ccccc2)[nH]c2cc(F)c(Sc3ccccc3)cc12 74.2

Entry O=c1c(O)c(-c2ccc(F)cc2)[nH]c2ccccc12 : reported Activity = ? 35.5

What Activity value was documented for this compound, O=c1c(O)c(-c2cccc(F)c2)[nH]c2ccccc12 ? 26.7

---
Need Activity of O=c1c(O)c(-c2ccccc2)[nH]c2cc(F)cc(F)c12 , thanks. 65.7

###

Tested on: CCRF-CEM
Assay: Cytotoxicity against human CCRF-CEM cells incubated for 72 hrs by MTS assay
Type: functional, cell-based
quantity.measured: pIC50
One number for each entry, as −log10 of the molar value.

Please report the recorded pIC50 for O=c1c(O)c(-c2ccccc2)[nH]c2ccc(F)cc12 . 4.75

Which pIC50 is listed for O=c1c(O)c(-c2ccccc2)[nH]c2cc(F)c(F)cc12 ? 4.90

What does the record list as pIC50 for O=c1c(O)c(-c2ccccc2)[nH]c2cc(F)ccc12 ? 4.75

Data request, read-out pIC50, for O=c1c(O)c(-c2ccccc2)[nH]c2cc(F)c(N3CCN(CCOCCO)CC3)cc12 4.70

Requested field: pIC50. Item: O=c1c(O)c(-c2ccc(F)cc2)[nH]c2ccccc12 5.62

// for each compound in input: emit pIC50
1. O=c1c(O)c(-c2cccc(F)c2)[nH]c2ccccc12
2. O=c1c(O)c(-c2ccccc2)[nH]c2cc(F)c(Sc3ccccc3)cc12

1: 5.14; 2: 5.48

Hey, quick one: what's pIC50 for each of these?
1. O=c1c(O)c(-c2ccccc2F)[nH]c2ccccc12
2. O=c1c(O)c(-c2ccccc2)[nH]c2c(F)c(F)c(F)c(F)c12
3. O=c1c(O)c(-c2ccccc2)[nH]c2cc(F)cc(F)c12

[4.76, 4.71, 5.34]

###

System: CCRF-CEM
Test: Cell cycle arrest in human CCRF-CEM cells assessed as accumulation at sub-G1 phase at IC50 measured after 24 hrs by propidium iodide staining based flow cytometry (reference value: 2%)
Assay type: functional
quantity.measured: Activity (%)
Answers are plain numbers, in %.

Please review the following examples before continuing.
Which Activity is reported for this molecule? O=c1c(O)c(-c2ccc(F)cc2)[nH]c2ccccc12 4.4

Fill in the blank: the reported Activity of O=c1c(O)c(-c2ccccc2)[nH]c2cc(F)cc(F)c12 is ____. 0.8

Give Activity for each listed item.
1. O=c1c(O)c(-c2ccccc2)[nH]c2cc(F)c(Sc3ccccc3)cc12
2. O=c1c(O)c(-c2cccc(F)c2)[nH]c2ccccc12

1: 5.8; 2: 5.4

###

System: CCRF-CEM
Experiment: Cytotoxicity against human daunorubicine-resistant CCRF-CEM cells incubated for 72 hrs by MTS assay
Type: functional, cell-based
So I've got a bunch of compounds here, and I need their IC50 values.
Numbers only, in µM.

For the compound O=c1c(O)c(-c2ccccc2)[nH]c2cc(F)cc(F)c12 , what IC50 is on record? 18

# map each compound to its IC50
1. O=c1c(O)c(-c2ccc(F)cc2)[nH]c2ccccc12
2. O=c1c(O)c(-c2ccccc2F)[nH]c2ccccc12
3. O=c1c(O)c(-c2cccc(F)c2)[nH]c2ccccc12
4. O=c1c(O)c(-c2ccccc2)[nH]c2cc(F)c(Sc3ccccc3)cc12
5. O=c1c(O)c(-c2ccccc2)[nH]c2cc(F)ccc12
6. O=c1c(O)c(-c2ccccc2)[nH]c2ccc(F)cc12

1: 9.4; 2: 50; 3: 50; 4: 3.7; 5: 17.5; 6: 15.3

For the 2 compounds below, give their IC50 values.
1. O=c1c(O)c(-c2ccccc2)[nH]c2cc(F)c(N3CCOCC3)cc12
2. O=c1c(O)c(-c2ccccc2)[nH]c2cc(F)c(F)cc12

1: 11.7; 2: 12.8

###

Tested on: HCT-116
Test: Cytotoxicity against p53-deficient human HCT-116 cells incubated for 72 hrs by MTS assay
Assay type: functional, cell-based
Settings: HCT-116, 72 h
quantity.measured: pIC50
Give bare numbers, as −log10 of the molar value.

Solved cases below.
// pIC50 lookup, key: O=c1c(O)c(-c2ccccc2F)[nH]c2ccccc12 4.47

Which pIC50 value is on record for O=c1c(O)c(-c2ccccc2)[nH]c2ccc(F)cc12 ? 4.76

Consider the molecule O=c1c(O)c(-c2cccc(F)c2)[nH]c2ccccc12 and give its measured pIC50. 4.30

If you can, please state the reported pIC50 value of O=c1c(O)c(-c2ccccc2)[nH]c2cc(F)c(F)cc12 . 4.65

Hi team, please reply with pIC50 for each item in this list.
1. O=c1c(O)c(-c2ccccc2)[nH]c2cc(F)c(N3CCN(CCOCCO)CC3)cc12
2. O=c1c(O)c(-c2ccc(F)cc2)[nH]c2ccccc12
3. O=c1c(O)c(-c2ccccc2)[nH]c2cc(F)c(Sc3ccccc3)cc12
4. O=c1c(O)c(-c2ccccc2)[nH]c2cc(F)ccc12

1. 4.53
2. 4.44
3. 5.40
4. 4.36
